# target-or-test-system: Potassium voltage-gated channel subfamily KQT member 1 (Homo sapiens) (UniProt P51787)
# Sequence (P51787 whole entry, looked up): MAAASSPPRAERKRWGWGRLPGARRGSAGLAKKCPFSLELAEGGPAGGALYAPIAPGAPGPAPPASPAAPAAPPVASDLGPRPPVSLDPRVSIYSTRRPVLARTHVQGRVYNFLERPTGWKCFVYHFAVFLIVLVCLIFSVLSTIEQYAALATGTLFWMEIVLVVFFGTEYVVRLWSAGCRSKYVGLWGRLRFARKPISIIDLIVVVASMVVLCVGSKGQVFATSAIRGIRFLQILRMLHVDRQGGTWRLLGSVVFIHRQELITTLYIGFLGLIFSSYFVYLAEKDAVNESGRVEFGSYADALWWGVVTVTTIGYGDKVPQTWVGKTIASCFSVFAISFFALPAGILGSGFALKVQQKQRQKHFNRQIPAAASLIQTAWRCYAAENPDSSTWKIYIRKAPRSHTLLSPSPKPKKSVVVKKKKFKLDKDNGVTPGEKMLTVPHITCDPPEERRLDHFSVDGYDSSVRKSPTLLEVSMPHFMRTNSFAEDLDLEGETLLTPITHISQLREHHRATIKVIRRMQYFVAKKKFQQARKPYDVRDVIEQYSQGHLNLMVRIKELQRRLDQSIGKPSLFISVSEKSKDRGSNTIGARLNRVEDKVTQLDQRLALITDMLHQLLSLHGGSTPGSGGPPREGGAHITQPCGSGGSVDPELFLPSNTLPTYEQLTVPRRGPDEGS
# measurement-description: KCNQ1 potassium channel potentiators, confirmation, FluxOR thallium flux, CHO cells, duplicates (AID 493007);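 as to potentiation: 0% = buffer-only wells and 100% = R-L3 activator control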
# recorded-conditions: KCNQ1 cell line, FluxOR thallium flux fluorescence, at 10 µM; active compounds read high, % of reference activator effect, buffer zero
The source made the active and inactive calls.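 The calls were made as follows: active = potentiation averaged over duplicate wells exceeding buffer-only control mean by more than 3 SD; inactive = the rest.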
observation-type: potentiation

# count of solved cases: 5
>>> observed_value("O=C1OCCC1Sc1nc2ccccc2c(=O)n1Cc1ccc(F)cc1 (configuration not stated)")
"44% (active)"
>>> observed_value("N#CC(c1ccccc1)c1ccc2c(C(F)(F)F)cc(C(F)(F)F)nc2n1 (configuration not stated)")
"129% (active)"
>>> observed_value("CCOc1ccc2nc(/N=C/c3nc(-c4ccccc4)oc3O)sc2c1")
"52.5% (active)"
>>> observed_value("S=c1nc(C2CCCCC2)[nH]c2ccccc12")
"22.5% (active)"
>>> observed_value("COc1ccc(OCC(=O)NNC(=O)c2cccs2)cc1")
"47.5% (active)"

Note to self: potentiation recorded for S=c1nc(-c2ccccc2)[nH]c2ccccc12 was 110% (active)

Given item O=c1c2ccccc2[nH]c(=S)n1CCc1ccccc1 , the value recorded as its potentiation is inactive

Summary for this compound, CCOC(=O)C(=NCC1CCCO1)NNc1ccccc1Cl (configuration not stated) : potentiation is inactive

The compound listed as Oc1c(Br)cc(Br)cc1C=NCc1ccc(F)cc1 has a reported potentiation of inactive

So for NS(=O)(=O)c1ccc(Sc2ccc3c(c2)CCC3)nc1 , the logged potentiation turned out to be 22.5% (active)

Note to self: potentiation recorded for CCN1C(=O)/C(=C/c2ccc(C)s2)NC1=S was 57.5% (active)

Sure, the documented potentiation for COc1ccccc1OCCc1nnc(N)s1 is inactive

* * *

# target-or-test-system: Potassium voltage-gated channel subfamily KQT member 1 (Homo sapiens) (UniProt P51787)
# measurement-description: KCNQ1 potassium channel potentiators, confirmation, FluxOR thallium flux, CHO cells, duplicates (AID 493007);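 as to outcome: cells depolarized by a potassium plus thallium sulfate stimulus after compound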
# recorded-conditions: KCNQ1 cell line, FluxOR thallium flux fluorescence, at 10 µM, % of reference activator effect, buffer zero
Calls of active or inactive are those of the source.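 The calls were made as follows: active = potentiation averaged over duplicate wells exceeding buffer-only control mean by more than 3 SD; inactive = the rest.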
Give one outcome, nothing more. List: active, inactive

Asked: // outcome(item) with item = COc1cccc(C2=NOC(C(=O)NCc3cccs3)C2)c1 (stereo not given)
Given back: inactive

Asked: Per the assay record, what outcome was assigned to Oc1c(N=NC(=S)Nc2ccccc2F)c2ccccc2n1Cc1cccc(Cl)c1 ?
Given back: inactive

Asked: Recorded test call requested for COc1cc2c(cc1NC(=O)CSc1nnc(COc3ccc(Cl)cc3)n1C)oc1ccccc12
Given back: active

Asked: Assay outcome for Cc1ccccc1NC(=S)NC(=O)c1cc(-c2ccccc2)nc2ccccc12 : what was it?
Given back: active

Asked: Tell me the recorded outcome of this test for COc1ccc(Nc2nc(-c3sc(C)nc3C)cs2)c(OC)c1 .
Given back: inactive

Asked: For CCC1CCc2c(sc(NC(=O)C3CC=CCC3C(=O)O)c2C#N)C1 (stereo not given) , what call appears in the results of this test?
Given back: inactive

Asked: State the result this test recorded for COc1ccc(C)cc1NC(=O)C(=O)NNC(=O)COc1ccc(Cl)cc1 .
Given back: active

Asked: Check the results log: what was the call for CCCN(C(=O)c1cn(-c2ccccc2)nc1-c1ccc(OC)cc1)C1CCS(=O)(=O)C1 (stereo not given) ?
Given back: inactive

Asked: What did this assay record as the result for Cc1onc(-c2ccccc2)c1C(=O)NNC(=S)NC(=O)c1ccc(Cl)cc1Cl ?
Given back: active

Asked: Can you look up the reported call for O=C(Nc1nnc(C2=COCCO2)o1)c1ccc(Br)cc1 for me?
Given back: active

* * *

# measurement-description: thallium flux activation in parental CHO cells, counter-screen for KCNQ1 potentiator project (AID 493006);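 as to activation: fluorescence ratio of max minus min over baseline after K+ and Tl+ depolarization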
# recorded-conditions: parental CHO-K1 cells, FluxOR thallium flux, at 10 µM; active compounds read high
The source made the active and inactive calls.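 Rule for the calls: active = duplicate-averaged activation above buffer control mean plus 5 SD of those controls; inactive = the rest.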
observation-type: activation

See these solved cases before continuing.
>>> observed_value("CCOC(=O)c1c(N)sc(C(C)=O)c1C")
"inactive"
>>> observed_value("COc1ccc2cc(CCNC(=O)C3CCCC3)c(=O)[nH]c2c1")
"inactive"
>>> observed_value("CC(C)CSC1=NSC2=NC(=O)/C(=C\\c3ccccc3)C(=N)N12")
"198% (active)"
>>> observed_value("C/C(Cl)=C\\Cn1c(O)c(N=NC(N)=S)c2cc(Br)ccc21")
"inactive"
>>> observed_value("CN(C)c1ccnc(N(Cc2ccccc2)Cc2ccccc2)c1C#N")
"inactive"

Sample Cc1cc(Cl)ccc1OCc1n[nH]c(=S)n1C1CCCCC1 ; activation observed: 190% (active)

The measured activation associated with COc1cc2c(cc1OC)CN(CCC(=O)c1ccc(Br)cc1)CC2 reads inactive

Looking up O=C(NC(=S)N(CC1CCC1)CC1CCCO1)c1cccc([N+](=O)[O-])c1 (stereo unspecified) , I see its activation listed as 224% (active)

// activation value for Cn1cccc1C(=O)NNC(=O)COc1ccccc1F : inactive

For record Cc1cc(/C=C2\C(=N)N3N=C(c4ccco4)SC3=NC2=O)c(C)n1Cc1ccccc1 the listed activation is inactive

activation in this record for CCOC(=O)c1ccccc1N1C(=O)CSC1=S : inactive

* * *

# target-or-test-system: Short transient receptor potential channel 6 (Mus musculus) (UniProt Q61143)
# Sequence (Q61143 whole entry, looked up): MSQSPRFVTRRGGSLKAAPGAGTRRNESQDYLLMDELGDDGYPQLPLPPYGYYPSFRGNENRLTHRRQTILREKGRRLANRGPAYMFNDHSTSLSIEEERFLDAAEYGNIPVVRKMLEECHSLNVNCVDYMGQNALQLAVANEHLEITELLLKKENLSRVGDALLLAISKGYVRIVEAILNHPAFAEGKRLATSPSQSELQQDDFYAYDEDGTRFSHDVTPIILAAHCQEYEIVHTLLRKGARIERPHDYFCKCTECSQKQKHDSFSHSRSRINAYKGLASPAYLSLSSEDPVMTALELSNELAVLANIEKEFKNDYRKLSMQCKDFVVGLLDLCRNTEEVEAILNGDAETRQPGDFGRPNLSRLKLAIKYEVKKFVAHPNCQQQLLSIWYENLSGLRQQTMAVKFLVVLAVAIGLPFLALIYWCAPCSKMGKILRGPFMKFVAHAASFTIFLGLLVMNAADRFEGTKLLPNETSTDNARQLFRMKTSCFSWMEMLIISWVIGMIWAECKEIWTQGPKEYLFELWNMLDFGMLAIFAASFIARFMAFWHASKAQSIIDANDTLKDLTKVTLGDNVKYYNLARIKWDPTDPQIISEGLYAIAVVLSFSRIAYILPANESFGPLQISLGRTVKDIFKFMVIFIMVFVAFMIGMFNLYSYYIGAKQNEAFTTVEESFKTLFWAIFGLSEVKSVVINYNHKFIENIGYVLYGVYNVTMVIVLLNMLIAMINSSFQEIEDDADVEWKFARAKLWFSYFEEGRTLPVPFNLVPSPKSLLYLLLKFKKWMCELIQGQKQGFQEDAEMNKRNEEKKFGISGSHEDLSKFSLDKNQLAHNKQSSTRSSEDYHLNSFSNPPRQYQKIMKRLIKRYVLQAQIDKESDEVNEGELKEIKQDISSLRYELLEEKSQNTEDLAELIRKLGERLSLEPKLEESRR
# measurement-description: mouse TRPC6 channel activators, confirmation, HEK293 cells, membrane potential dye, duplicate (AID 488961)
# recorded-conditions: HEK293-TRPC6 membrane potential dye fluorescence, FDSS, at 10 µM
The other results are listed elsewhere or left out. Calls of active or inactive are those of the source.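 The calls were made as follows: active = ratio signal rise beyond 5 SD above unstimulated control wells' mean, seen in both duplicate runs; inactive = the rest.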
Outcome field: choose from 1 (yes) (active), 0 (no) (inactive)

Asked: # fetch the recorded call for CCCCCCn1cc(C(=O)O)c(=O)c2cc(F)c(N3CCCCC3)cc21 here
Given back: 1 (yes)

Asked: Dear all, I need the recorded test outcome for CC(NC(=S)Nc1ccc(OC(F)F)cc1)c1ccc(F)cc1 (stereo unspecified) , thank you.
Given back: 0 (no)

Asked: Would you mind telling me which call this test gave O=C1c2ccccc2C(=O)c2c1cccc2N1CCN(CCO)CC1 ?
Given back: 0 (no)

Asked: Assay outcome for CSCCC(NC(=O)c1ccc(=O)n(C)n1)c1nc2ccccc2[nH]1 (stereo unspecified) : what was it?
Given back: 0 (no)

Asked: Field: outcome | Entry: COc1cc2c(cc1OC)C(/C=C/c1ccco1)=NCC2
Given back: 0 (no)

Asked: Short answer needed: outcome of this test for Cc1ccc(NC(=S)N(CCCN2CCCC2)Cc2cccn2Cc2ccc(Cl)cc2)cc1 ?
Given back: 0 (no)

* * *

# target-or-test-system: Potassium voltage-gated channel subfamily KQT member 2 (Rattus norvegicus)
# measurement-description: rat KCNQ2 channel potentiation, selectivity assay for KCNQ1 potentiator project, KCNQ2-CHO-K1 cells (AID 493009);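 also: assay conditions were tuned for KCNQ1 rather than KCNQ2 modulators; signal is max minus min fluorescence divided by baseline after thallium stimulus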
# recorded-conditions: FluxOR thallium flux fluorescence, at 10 µM, scaled: buffer 0, activator control 100
Activity calls are given as the source filed them.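 The calls were made as follows: active = mean duplicate potentiation above the buffer control mean plus 5 SD of buffer wells; inactive = the rest.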
Choose one outcome from this list and give only that: active, inactive

Asked: // outcome(item) with item = O=c1cc2c(nn1Cc1c(Cl)cccc1Cl)-c1ccccc1CC2
Given back: inactive

Asked: Recorded call for Cc1ccc(OCCN2C(=O)c3ccccc3C2=O)c([N+](=O)[O-])c1 ?
Given back: inactive

Asked: What did the test return for CN(C)c1ccnc(N(Cc2ccccc2)Cc2ccccc2)c1C#N ?
Given back: inactive

Asked: Hi team, can someone confirm the assay call for CCSc1nc2c(sc3ccccc32)c(=O)n1C(C)C ?
Given back: active

Asked: Query: recorded result category for O=C(c1cc([N+](=O)[O-])cc([N+](=O)[O-])c1)N1CCCc2ccccc21 in this test
Given back: inactive

Asked: Dear colleague, could you share the recorded outcome for Oc1[nH]c2ccc(Br)cc2c1N=NC(=S)NCC1CCCO1 (stereo not drawn) when you have a moment?
Given back: active

Asked: # fetch the recorded call for CCc1ccc(/C=N/NC(=O)Cc2cccn2C)cc1 here
Given back: inactive

Asked: Lab log entry: CN1C(=O)C2(Oc3ccccc3C3CC(c4ccccc4)=NN32)c2ccccc21 (stereo not drawn) — outcome as called in the assay?
Given back: inactive

Asked: Lab log entry: COc1ccc2nc(N3C(=O)/C(=C/c4ccccc4)NC3=S)sc2c1 — outcome as called in the assay?
Given back: active

Asked: For Cc1nnc(C)n1/N=C/c1cc(Br)cc(Br)c1O , what call appears in the results of this test?
Given back: inactive

Asked: Could you check what this test reported for Cc1ccccc1NS(=O)(=O)c1ccc2[nH]cc(C(=O)N(C)Cc3ccco3)c(=O)c2c1 ?
Given back: inactive

Asked: # lookup: test call for O=C(NNC(=S)NC(=O)c1ccco1)c1ccc(F)cc1
Given back: active

Asked: Tell me the recorded outcome of this test for CC(NC(=S)NC(=O)c1ccccc1Br)c1ccccc1 (stereo not drawn) .
Given back: active

Asked: Entry CC(C)c1nc2n[nH]c(N)c2c2c1CCCC2 : call = ?
Given back: inactive

Asked: Which outcome was assigned to O=C(Nc1cccc(NC(=O)c2c(F)cccc2F)n1)c1c(F)cccc1F in this test?
Given back: inactive

Asked: Identify the outcome logged in this assay for the compound shown: CC1(c2ccc(OC(F)F)cc2)NC(=O)N(CC(=O)Nc2ccc3c(c2)OCO3)C1=O (stereo not drawn)
Given back: inactive

Asked: I would be grateful if you could indicate the recorded call for COc1ccc(NC(=O)C(=O)NNC(=O)c2ccc(Cl)cc2Cl)cc1 .
Given back: active

Asked: Assay result, entry CON/C=N/C(=S)Nc1ncc(C(F)(F)F)cc1Cl — outcome?
Given back: active

Asked: What was the test verdict on Cc1[nH]n(-c2ccccc2)c(=O)c1N=Nc1nccs1 ?
Given back: active

Asked: Could you please tell me the result logged for Cc1cccc(C(=O)NC(=S)NNC(=O)COc2c(C)cccc2C)c1 in this assay?
Given back: active

Asked: Answer briefly: the call reported for Cc1ccc(NC(=O)Nc2ccc3c(c2)CCC3)cc1 in this assay.
Given back: inactive

Asked: I would be grateful if you could indicate the recorded call for O=c1c2ccc(Cl)cc2nc(-c2ccc([N+](=O)[O-])cc2)n1O .
Given back: active

Asked: // param item: O=C(NC(=S)N1CCc2ccccc21)c1ccccc1Cl ; yields the recorded call
Given back: active
